Each recorded value in this set is attributed to patent US9624170B2.

Target: human MAGL (His-hMAGL) (Homo sapiens, UniProt Q99685)
Construct: made in house; host or cells: Escherichia coli BL21(DE3)
Sequence (Q99685 whole entry): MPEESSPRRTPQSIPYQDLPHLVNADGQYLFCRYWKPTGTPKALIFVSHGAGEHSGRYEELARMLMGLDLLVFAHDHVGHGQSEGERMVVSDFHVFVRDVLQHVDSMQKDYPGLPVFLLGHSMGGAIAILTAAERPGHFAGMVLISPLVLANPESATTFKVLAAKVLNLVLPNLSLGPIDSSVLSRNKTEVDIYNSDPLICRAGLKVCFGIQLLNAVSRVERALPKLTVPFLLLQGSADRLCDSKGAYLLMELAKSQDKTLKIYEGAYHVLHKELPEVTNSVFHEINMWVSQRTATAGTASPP
Assay: Measurement of MAGL inhibitory activity by mass spectrometry
Type: biochemical
Settings: 10 μM test compound; substrate 2-arachidonylglycerol, arachidonic acid by RapidFire-mass spectrometry
measurementName: inhibition at 10 µM

compound | measurementName | reportedResult
O=C(c1nccs1)N1CCN(C2CC(=O)N(c3cccc(-c4ncccc4Cl)c3)C2)CC1 (centres unmarked) | inhibition at 10 µM | 99%
Cc1ccsc1-c1cccc(N2CC(N3CCN(C(=O)c4nccs4)CC3)CC2=O)c1 (centres unmarked) | inhibition at 10 µM | 99%
O=C(c1nccs1)N1CCN(C2CC(=O)N(c3cccc(-c4ncccc4C(F)(F)F)c3)C2)CC1 (centres unmarked) | inhibition at 10 µM | 100%
Cc1ncccc1-c1cccc(N2CC(N3CCN(C(=O)c4nccs4)CC3)CC2=O)n1 (centres unmarked) | inhibition at 10 µM | 100%
NC(=O)c1cccc(-c2cccc(N3CC(N4CCN(C(=O)c5nccs5)CC4)CC3=O)c2)c1 (centres unmarked) | inhibition at 10 µM | 100%
